Molecular target: butyrylcholinesterase from equine serum (Equus caballus, UniProt P81908)
Construct: butyrylcholinesterase from equine serum; purchased Sigma-Aldrich, Hamburg, Germany; host or cells: equine serum
Sequence (P81908 whole entry): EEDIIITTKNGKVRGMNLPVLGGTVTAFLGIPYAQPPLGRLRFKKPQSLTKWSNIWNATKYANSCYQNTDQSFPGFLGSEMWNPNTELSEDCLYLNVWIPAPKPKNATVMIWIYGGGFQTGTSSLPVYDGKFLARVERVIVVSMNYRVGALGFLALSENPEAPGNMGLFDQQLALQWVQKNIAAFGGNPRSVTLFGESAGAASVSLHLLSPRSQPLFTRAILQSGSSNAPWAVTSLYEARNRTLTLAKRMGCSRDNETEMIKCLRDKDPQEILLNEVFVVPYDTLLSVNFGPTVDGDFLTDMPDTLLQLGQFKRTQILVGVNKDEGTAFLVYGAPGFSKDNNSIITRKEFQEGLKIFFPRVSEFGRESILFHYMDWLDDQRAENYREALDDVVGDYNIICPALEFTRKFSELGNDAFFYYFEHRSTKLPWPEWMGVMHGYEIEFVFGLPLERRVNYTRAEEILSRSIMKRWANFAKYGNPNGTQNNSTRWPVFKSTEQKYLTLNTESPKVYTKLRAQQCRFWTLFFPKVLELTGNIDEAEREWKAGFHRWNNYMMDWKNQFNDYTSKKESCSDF
Experiment: biochemical
Conditions: mean ± SD of three experiments; read-out: BChE IC50
pIC50: −log10 of the molar value.
quantity-kind: pIC50

INSERT INTO results (compound, endpoint_value) VALUES
  ('O=S(=O)(N/N=C/c1c[nH]c2ccc(OCc3ccccc3)cc12)c1ccccc1 [5k]', '< 3.00'),
  ('COc1ccc(S(=O)(=O)N/N=C/c2cn(C)c3ccccc23)cc1 [5e]', '< 3.00'),
  ('COc1ccc(/C=N/NC(=O)Cc2c[nH]c3ccccc23)cc1OC [3p]', '< 3.00'),
  ('COc1ccc(/C=N/NS(=O)(=O)c2ccc(C)cc2)cc1OC [5h]', '< 3.00'),
  ('COc1ccc(/C=N/NS(=O)(=O)c2ccccc2)cc1OC [5i]', '< 3.00'),
  ('O=C(Cc1c[nH]c2ccccc12)N/N=C/C1CCN(Cc2ccccc2)CC1 [3a]', 4.25),
  ('O=S(=O)(N/N=C/C1CCN(Cc2ccccc2)CC1)c1ccccc1 [5a]', 3.59),
  ('COc1cc(/C=N/NC(=O)Cc2c[nH]c3ccccc23)ccc1O [3q]', '< 3.00'),
  ('COc1ccc(S(=O)(=O)N/N=C/c2c[nH]c3ccc(OC)cc23)cc1 [5c]', '< 3.00'),
  ('Cn1cc(/C=N/NC(=O)CNC(=O)OC(C)(C)C)c2ccccc21 [3l]', '< 3.00');

----------
Biological target: butyrylcholinesterase from equine serum (Equus caballus, UniProt P81908)
Construct: butyrylcholinesterase from equine serum; purchased Sigma-Aldrich, Hamburg, Germany; host or cells: equine serum
Assay: biochemical
Conditions: 1 mM solution of the tested compound; read-out: Activity [%] (inhibition percentage of BChE)
quantity-kind: inhibition at 1000 µM (%)

INSERT INTO measurements (compound, quantity_kind, endpoint_value) VALUES
  ('O=C(N/N=C/c1c(O)cc(O)cc1O)C1CCN(Cc2ccccc2)C1 (centres unmarked)', 'inhibition at 1000 µM', 76.5),
  ('O=C(Cc1c[nH]c2ccccc12)N/N=C/C1CCN(Cc2ccccc2)CC1', 'inhibition at 1000 µM', 80.4),
  ('COc1ccc2[nH]cc(/C=N/NC(=O)CNC(=O)OC(C)(C)C)c2c1', 'inhibition at 1000 µM', 17.4),
  ('COc1ccc(/C=N/NS(=O)(=O)c2ccc(C)cc2)cc1OC', 'inhibition at 1000 µM', 26.6),
  ('O=C(N/N=C/c1ccc(O)c(O)c1)C1CCN(Cc2ccccc2)C1 (centres unmarked)', 'inhibition at 1000 µM', 28.2);

----------
System: SH-SY5Y cells
Assay: MTT cytotoxicity, SH-SY5Y
Format: cell-based, human
Details: Homo sapiens, SH-SY5Y; MTT, 72 h exposure; read-out: SH-SY5Y IC50
pIC50: −log10 of the molar value.
Respond with t for pIC50 values of 4 and above, f for values below.

INSERT INTO results (molecule, category_label) VALUES
  ('O=C(N/N=C/c1ccc(O)c(O)c1)C1CCN(Cc2ccccc2)C1 (stereo not shown) [3g]', 'f'),
  ('COc1ccc2[nH]cc(/C=N/NC(=O)CNC(=O)OC(C)(C)C)c2c1 [3j]', 'f'),
  ('COc1ccc(/C=N/NS(=O)(=O)c2ccccc2)cc1OC [5i]', 't'),
  ('COc1ccc(S(=O)(=O)N/N=C/c2cn(C)c3ccc(OC)cc23)cc1 [5b]', 't'),
  ('COc1ccc2c(c1)c(/C=N/NC(=O)CNC(=O)OC(C)(C)C)cn2C [3k]', 'f'),
  ('O=S(=O)(N/N=C/C1CCN(Cc2ccccc2)CC1)c1ccccc1 [5a]', 'f');

----------
Target: butyrylcholinesterase from equine serum (Equus caballus)
Construct: butyrylcholinesterase from equine serum; purchased Sigma-Aldrich, Hamburg, Germany; host or cells: equine serum
Assay: biochemical
Settings: mean ± SD of three experiments; read-out: BChE IC50
Labelling: IC50 reported below 300 µM becomes criterion met; at or above becomes criterion not met.

INSERT INTO assay_data (molecule, category_label) VALUES
  ('Cc1ccc(S(=O)(=O)N/N=C/c2c[nH]c3ccc(OCc4ccccc4)cc23)cc1 [5j]', 'criterion not met'),
  ('COc1ccc(S(=O)(=O)N/N=C/c2cn(C)c3ccc(OC)cc23)cc1 [5b]', 'criterion not met'),
  ('COc1ccc2[nH]cc(/C=N/NC(=O)CNC(=O)OC(C)(C)C)c2c1 [3j]', 'criterion not met'),
  ('COc1ccc2[nH]cc(/C=N/NC(=O)Cc3c[nH]c4ccccc34)c2c1 [3n]', 'criterion met'),
  ('O=C(N/N=C/C1CCN(Cc2ccccc2)CC1)c1ccc(O)cc1O [3b]', 'criterion met'),
  ('O=C(N/N=C/C1CCN(Cc2ccccc2)CC1)c1c[nH]c2ccccc12 [3c]', 'criterion met'),
  ('O=C(N/N=C/c1ccc(O)cc1)C1CCN(Cc2ccccc2)C1 (stereo not drawn) [3e]', 'criterion not met'),
  ('O=S(=O)(N/N=C/c1cn(Cc2ccccc2)c2ccccc12)c1ccccc1 [5d]', 'criterion not met'),
  ('COc1ccc2c(c1)c(/C=N/NC(=O)CNC(=O)OC(C)(C)C)cn2C [3k]', 'criterion not met'),
  ('COc1cc(/C=N/NC(=O)c2ccc(O)cc2O)ccc1O [3r]', 'criterion not met'),
  ('COc1ccc(/C=N/NC(=O)c2c[nH]c3ccccc23)cc1OC [3o]', 'criterion not met'),
  ('O=C(N/N=C/c1ccc(O)c(O)c1)C1CCN(Cc2ccccc2)C1 (stereo not drawn) [3g]', 'criterion not met'),
  ('O=S(=O)(N/N=C/c1ccc(Cl)cc1)c1ccccc1 [5l]', 'criterion not met'),
  ('O=C(N/N=C/c1ccc(O)cc1O)C1CCN(Cc2ccccc2)C1 (stereo not drawn) [3f]', 'criterion not met'),
  ('COc1ccc(C(=O)N/N=C/C2CCN(Cc3ccccc3)CC2)cc1 [3d]', 'criterion met'),
  ('Cc1ccc(S(=O)(=O)N/N=C/c2cn(Cc3ccccc3)c3ccccc23)cc1 [5g]', 'criterion not met'),
  ('CC(C)(C)OC(=O)NCC(=O)N/N=C/c1cn(Cc2ccccc2)c2ccccc12 [3m]', 'criterion not met'),
  ('O=C(N/N=C/c1c(O)cc(O)cc1O)C1CCN(Cc2ccccc2)C1 (stereo not drawn) [3h]', 'criterion met');

----------
This listing pairs compounds with measured pIC50.
Experiment: ABTS radical scavenging assay
Conditions: 734 nm after 5 min
pIC50: −log10 of the molar value.
quantity-kind: pIC50

INSERT INTO results (compound, operator, endpoint_value) VALUES
  ('O=S(=O)(N/N=C/C1CCN(Cc2ccccc2)CC1)c1ccccc1', '<', 2.30),
  ('Cc1ccc(S(=O)(=O)N/N=C/c2c[nH]c3ccc(OCc4ccccc4)cc23)cc1', '=', 2.66),
  ('Cc1ccc(S(=O)(=O)N/N=C/c2cn(Cc3ccccc3)c3ccccc23)cc1', '=', 2.68),
  ('CC(C)(C)OC(=O)NCC(=O)N/N=C/c1cn(Cc2ccccc2)c2ccccc12', '<', 2.30),
  ('COc1ccc2[nH]cc(/C=N/NC(=O)Cc3c[nH]c4ccccc34)c2c1', '=', 3.11),
  ('Cc1cc(C(C)(C)C)c(O)c(C(C)(C)C)c1 [BHT, butylated hydroxytoluene, reference compound]', '<', 2.30),
  ('O=C(N/N=C/C1CCN(Cc2ccccc2)CC1)c1c[nH]c2ccccc12', '<', 2.30),
  ('COc1cc(/C=N/NC(=O)Cc2c[nH]c3ccccc23)ccc1O', '=', 2.62),
  ('COc1ccc(C(=O)N/N=C/C2CCN(Cc3ccccc3)CC2)cc1', '=', 2.98);

----------
Test: Lipid peroxidation in linoleic acid system, FTC method
Details: 10 mM compound, 500 nm, Day 3
quantity-kind: Absorbance Day 3

INSERT INTO results (compound, quantity_kind, endpoint_value) VALUES
  ('Cc1ccc(S(=O)(=O)N/N=C/c2cn(Cc3ccccc3)c3ccccc23)cc1 [5g]', 'Absorbance Day 3', 0.88),
  ('O=S(=O)(N/N=C/C1CCN(Cc2ccccc2)CC1)c1ccccc1 [5a]', 'Absorbance Day 3', 0.89),
  ('COc1ccc(/C=N/NS(=O)(=O)c2ccc(C)cc2)cc1OC [5h]', 'Absorbance Day 3', 0.83),
  ('COc1ccc(C(=O)N/N=C/C2CCN(Cc3ccccc3)CC2)cc1 [3d]', 'Absorbance Day 3', 0.88),
  ('COc1cc(/C=N/NC(=O)Cc2c[nH]c3ccccc23)ccc1O [3q]', 'Absorbance Day 3', 0.79),
  ('COc1cc(/C=N/NC(=O)c2ccc(O)cc2O)ccc1O [3r]', 'Absorbance Day 3', 0.82),
  ('COc1ccc(/C=N/NS(=O)(=O)c2ccccc2)cc1OC [5i]', 'Absorbance Day 3', 0.83),
  ('Cc1ccc(S(=O)(=O)N/N=C/c2c[nH]c3ccc(OCc4ccccc4)cc23)cc1 [5j]', 'Absorbance Day 3', 0.84),
  ('Cc1cc(C(C)(C)C)c(O)c(C(C)(C)C)c1 [BHT, butylated hydroxytoluene, reference compound]', 'Absorbance Day 3', 0.78),
  ('O=C(Cc1c[nH]c2ccccc12)N/N=C/C1CCN(Cc2ccccc2)CC1 [3a]', 'Absorbance Day 3', 0.72),
  ('COc1ccc2[nH]cc(/C=N/NC(=O)Cc3c[nH]c4ccccc34)c2c1 [3n]', 'Absorbance Day 3', 0.89),
  ('COc1ccc2[nH]cc(CCNC(C)=O)c2c1 [Melatonin, reference compound]', 'Absorbance Day 3', 0.89),
  ('O=C(N/N=C/C1CCN(Cc2ccccc2)CC1)c1ccc(O)cc1O [3b]', 'Absorbance Day 3', 0.95),
  ('CC(C)(C)OC(=O)NCC(=O)N/N=C/c1cn(Cc2ccccc2)c2ccccc12 [3m]', 'Absorbance Day 3', 0.92),
  ('O=C(N/N=C/C1CCN(Cc2ccccc2)CC1)c1c[nH]c2ccccc12 [3c]', 'Absorbance Day 3', 0.85),
  ('O=S(=O)(N/N=C/c1c[nH]c2ccc(OCc3ccccc3)cc12)c1ccccc1 [5k]', 'Absorbance Day 3', 0.83);
